test system: HBeAg secretion; test: microbe, parasite or virus in culture; format: cell-based, Hepatitis B virus; conditions: HepG 2.2.15 cells; means of two independent experiments; read-out: HBeAg IC50
Here the recorded IC50 is given for each entry.

{"columns": ["Molecule", "Test system", "Result"],
 "data": [
  ["CC1(C)CCCC(C)(C2CCC3(C)C2C(=O)CC2C4(C)CCC(OC(=O)CCC(=O)O)C(C)(C)C4CCC23C)O1 (stereo not shown)", "HBeAg secretion", "> 1940 µM"],
  ["CC1(C)CCCC(C)(C2CCC3(C)C2C(O)CC2C4(C)CCC(OC(=O)c5ccco5)C(C)(C)C4C(OC(=O)c4ccco4)CC23C)O1 (stereo not shown)", "HBeAg secretion", "> 1280 µM"],
  ["Cc1ccsc1C(=O)OC1CCC2(C)C(CCC3(C)C2CC(O)C2C(C4(C)CCCC(C)(C)O4)CCC23C)C1(C)C (stereo not shown)", "HBeAg secretion", "> 2020 µM"],
  ["CC1(C)CCCC(C)(C2CCC3(C)C2C(O)CC2C4(C)CCC(OC(=O)c5cccnc5)C(C)(C)C4CCC23C)O1 (stereo not shown)", "HBeAg secretion", "1150 µM"],
  ["CCOCC(=O)O[C@H]1CC[C@]2(C)[C@H]3C[C@@H](O)[C@@H]4[C@@H]([C@@]5(C)CCCC(C)(C)O5)CC[C@@]4(C)[C@]3(C)CC[C@H]2C1(C)C", "HBeAg secretion", "> 2360 µM"]
]}

Ask | Query IC50 for CC1(C)CCCC(C)(C2CCC3(C)C2C(O)CC2C4(C)CCC(OC(=O)C5CCCC5)C(C)(C)C4CCC23C)O1 (stereo not shown)
Reply | > 2140 µM

Ask | Query IC50 for CC1(C)CCCC(C)(C2CCC3(C)C2C(O)CC2C4(C)CCC(OC(=O)CCC(=O)O)C(C)(C)C4C(OC(=O)CCC(=O)O)CC23C)O1 (stereo not shown)
Reply | > 1940 µM

Ask | Query IC50 for CC1(C)CCCC(C)(C2CCC3(C)C2C(O)CC2C4(C)CCC(OC(=O)CC5(CC(=O)O)CCCC5)C(C)(C)C4CCC23C)O1 (stereo not shown)
Reply | > 1730 µM

Ask | Query IC50 for `CC1(C)CCC[C@](C)([C@H]2CC[C@]3(C)[C@@H]2[C@H](O)C[C@@H]2[C@@]4(C)CC[C@H](OC(=O)c5sccc5Cl)C(C)(C)[C@@H]4CC[C@]23C)O1`
Reply | 280 µM

Ask | Query IC50 for CC1(C)CCCC(C)(C2CCC3(C)C2C(O)CC2C4(C)CCC(OC(=O)CCCC(=O)O)C(C)(C)C4CCC23C)O1 (stereo not shown)
Reply | 101 µM

* * *

Here the recorded CC50 is given for each entry.
tested on: HepG 2.2.15 cells; test: Cytotoxicity, modified MTT method; type: cell-based; details: 50 % cytotoxicity concentration in HepG 2.2.15 cells; means of two independent experiments

{"columns": ["Compound", "Observation type", "Result"],
 "data": [
  ["CC1(C)CCC[C@](C)([C@H]2CC[C@]3(C)[C@@H]2[C@H](O)C[C@@H]2[C@@]4(C)CC[C@H](OC(=O)c5sccc5Cl)C(C)(C)[C@@H]4CC[C@]23C)O1 [Compound 6, 3-O-(3′-Chloro)-thenoyl panaxadiol]", "CC50", "> 1.64 mM"]
]}

Ask | Query CC50 for CC(=O)OC1CCC2(C)C(CCC3(C)C2CC(=O)C2C(C4(C)CCCC(C)(C)O4)CCC23C)C1(C)C (stereo not shown) [Compound 26]
Reply | > 2.28 mM

Ask | Query CC50 for Cc1ccsc1C(=O)OC1CCC2(C)C(CCC3(C)C2CC(O)C2C(C4(C)CCCC(C)(C)O4)CCC23C)C1(C)C (stereo not shown) [Compound 5, 3-O-(3′-Methyl)-thenoyl panaxadiol]
Reply | > 2.02 mM

Ask | Query CC50 for CC1(C)CCCC(C)(C2CCC3(C)C2C(O)CC2C4(C)CCC(OC(=O)COCC(=O)O)C(C)(C)C4CCC23C)O1 (stereo not shown) [Compound 16, 3-O-Diglycolyl panaxadiol]
Reply | > 1.7 mM

* * *

Here the recorded pIC50 is given for each entry.
system: HBsAg secretion; test: microbe, parasite or virus in culture; assay type: cell-based, Hepatitis B virus; details: HepG 2.2.15 cells; means of two independent experiments; read-out: HBsAg IC50
Recall that pIC50 is obtained by taking minus log10 of the concentration measured in molar.

{"columns": ["Compound", "Test system", "Observation type", "Quantitative result"],
 "data": [
  ["CC1(C)CCC[C@](C)([C@H]2CC[C@]3(C)[C@@H]2[C@H](O)C[C@@H]2[C@@]4(C)CC[C@H](OC(=O)c5cc(O)c(O)c(O)c5)C(C)(C)[C@@H]4CC[C@]23C)O1 [Compound 10, 3-O-Galloyl panaxadiol]", "HBsAg secretion", "pIC50", 4.34]
]}

Kindly consider the entry below.
Ask | Query pIC50 for CC1(C)CCCC(C)(C2CCC3(C)C2C(O)CC2C4(C)CCC(OC(=O)CCC(=O)O)C(C)(C)C4CCC23C)O1 (centres unmarked) [Compound 14, 3-O-Succinyl panaxadiol]
Reply | 3.70

* * *

test system: HBeAg secretion; experiment: microbe, parasite or virus in culture; type: cell-based, Hepatitis B virus; conditions: HepG 2.2.15 cells; means of two independent experiments; read-out: HBeAg IC50
Observation type: pIC50
Recall that pIC50 is obtained by taking minus log10 of the concentration measured in molar.

Consider the worked cases shown below.
{"columns": ["Molecule", "Test system", "Observation type", "Quantitative result"],
 "data": [
  ["CC1(C)CCCC(C)(C2CCC3(C)C2C(O)CC2C4(C)CCC(OC(=O)COCC(=O)O)C(C)(C)C4CCC23C)O1 (stereo not drawn)", "HBeAg secretion", "pIC50", 3.05],
  ["CC1(C)CCCC(C)(C2CCC3(C)C2C(O)CC2C4(C)CCC(OC(=O)c5cccnc5)C(C)(C)C4C(OC(=O)c4cccnc4)CC23C)O1 (stereo not drawn)", "HBeAg secretion", "pIC50", 2.97],
  ["CC1(C)CCCC(C)(C2CCC3(C)C2C(O)CC2C4(C)CCC(OC(=O)c5cccs5)C(C)(C)C4CCC23C)O1 (stereo not drawn)", "HBeAg secretion", "pIC50", 4.74],
  ["CC1(C)CCCC(C)(C2CCC3(C)C2C(O)CC2C4(C)CCC(OC(=O)CCC(=O)O)C(C)(C)C4CCC23C)O1 (stereo not drawn)", "HBeAg secretion", "pIC50", 3.77],
  ["COCC(=O)OC1CC2(C)C(CC(O)C3C(C4(C)CCCC(C)(C)O4)CCC32C)C2(C)CCC(OC(=O)COC)C(C)(C)C12 (stereo not drawn)", "HBeAg secretion", "pIC50", 3.01]
]}

Kindly consider the entry below.
Ask | Query pIC50 for CC1(C)CCCC(C)(C2CCC3(C)C2C(O)CC2C4(C)CCC(OC(=O)c5ccco5)C(C)(C)C4CCC23C)O1 (stereo not drawn)
Reply | 2.93

* * *

assay: Cytotoxicity, modified MTT method; format: cell-based; settings: human; 50 % cytotoxicity concentration in HepG 2.2.15 cells; means of two independent experiments
Observation type: CC50

Consider the worked cases shown below.
{"columns": ["Molecule", "Observation type", "Result"],
 "data": [
  ["CC1(C)CCC[C@](C)([C@H]2CC[C@]3(C)[C@@H]2[C@H](O)C[C@@H]2[C@@]4(C)CC[C@H](O)C(C)(C)[C@@H]4[C@@H](O)C[C@]23C)O1 [PT, Panaxatriol]", "CC50", "> 2420 µM"],
  ["CC1(C)CCC[C@](C)([C@H]2CC[C@]3(C)[C@@H]2[C@H](O)C[C@@H]2[C@@]4(C)CC[C@H](O)C(C)(C)[C@@H]4CC[C@]23C)O1 [PD, Panaxadiol]", "CC50", "923 µM"]
]}

Ask | Query CC50 for C[C@H](Cn1cnc2c(N)ncnc21)OCP(=O)(O)O [Tf, Tenofovir, reference compound]
Reply | > 1720 µM

* * *

Here the recorded pIC50 is given for each entry.
tested on: HBsAg secretion; assay: microbe, parasite or virus in culture; assay type: cell-based, Hepatitis B virus; conditions: HepG 2.2.15 cells; means of two independent experiments; read-out: HBsAg IC50
pIC50: −log10 of the molar value.

{"columns": ["Compound", "pIC50"],
 "data": [
  ["Cc1ccsc1C(=O)OC1CCC2(C)C(CCC3(C)C2CC(O)C2C(C4(C)CCCC(C)(C)O4)CCC23C)C1(C)C (stereo not drawn) [Compound 5, 3-O-(3′-Methyl)-thenoyl panaxadiol]", "< 2.69"],
  ["CC1(C)CCCC(C)(C2CCC3(C)C2C(O)CC2C4(C)CCC(OC(=O)CCC(=O)O)C(C)(C)C4C(OC(=O)CCC(=O)O)CC23C)O1 (stereo not drawn) [Compound 21, 3,6-O-Disuccinyl panaxatriol]", "< 2.71"],
  ["CC1(C)CCCC(C)(C2CCC3(C)C2C(O)CC2C4(C)CCC(OC(=O)c5ccco5)C(C)(C)C4C(OC(=O)c4ccco4)CC23C)O1 (stereo not drawn) [Compound 22, 3,6-O-Di(2′-furoyl)-panaxatriol]", "< 2.89"],
  ["CC1(C)CCCC(C)(C2CCC3(C)C2C(O)CC2C4(C)CCC(OC(=O)CC5(CC(=O)O)CCCC5)C(C)(C)C4CCC23C)O1 (stereo not drawn) [Compound 19]", "< 2.76"],
  ["CC1(C)CCCC(C)(C2CCC3(C)C2C(O)CC2C4(C)CCC(OC(=O)COCC(=O)O)C(C)(C)C4CCC23C)O1 (stereo not drawn) [Compound 16, 3-O-Diglycolyl panaxadiol]", "< 2.77"]
]}

Ask | Query pIC50 for CC1(C)CCCC(C)(C2CCC3(C)C2C(=O)CC2C4(C)CCC(OC(=O)CCC(=O)O)C(C)(C)C4CCC23C)O1 (stereo not drawn) [Compound 28]
Reply | < 2.71
